# target under test: Oxysterols receptor LXR-alpha (Homo sapiens)
# Sequence (Q13133 whole entry): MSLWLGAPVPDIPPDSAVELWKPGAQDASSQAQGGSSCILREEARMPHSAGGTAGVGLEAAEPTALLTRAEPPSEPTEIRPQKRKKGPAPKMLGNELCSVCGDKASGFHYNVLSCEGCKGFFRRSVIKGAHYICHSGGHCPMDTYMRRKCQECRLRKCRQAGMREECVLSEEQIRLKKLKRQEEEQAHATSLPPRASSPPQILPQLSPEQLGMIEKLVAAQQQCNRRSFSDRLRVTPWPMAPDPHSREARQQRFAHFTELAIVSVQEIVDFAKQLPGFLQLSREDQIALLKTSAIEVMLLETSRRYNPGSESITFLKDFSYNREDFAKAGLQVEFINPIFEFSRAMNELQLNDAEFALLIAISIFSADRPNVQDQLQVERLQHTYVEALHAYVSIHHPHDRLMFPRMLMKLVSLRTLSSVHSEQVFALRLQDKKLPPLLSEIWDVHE
# measurement protocol: Binding affinity to LXRalpha (unknown origin)
measured metric: EC50 (nM)

[[record]]
molecule = "CCN(c1ccc(C(O)(C(F)(F)F)C(F)(F)F)cc1)S(=O)(=O)c1ccccc1"
measured_metric = "EC50"
uom = "nM"
recorded_number = 320


Reference source: ChEMBL document CHEMBL2321801
